Measured Exp Inhib Constant by item
# system tested: Glycogen phosphorylase, muscle form (Oryctolagus cuniculus)
# assay remarks: Tested for inhibition constant against glycogen phosphorylase b
# Design: scale not given here
readout name: Exp Inhib Constant

| molecule | reported value |
| --- | --- |
| CS(=O)(=O)OC[C@]1(O)O[C@@H](CO)[C@@H](O)[C@H](O)[C@@H]1O | 1.31 |
| NCC1OC(CO)C(O)C(O)C1O (stereo in doubt; 15) | 2.82 |
| OCC1OC(F)C(F)C(O)C1O (stereo not given) | -1.61 |
| OC[C@H]1O[C@H](OCC2O[C@@H](O)[C@H](O)[C@@H](O)[C@@H]2O)[C@H](O)[C@@H](O)[C@H]1O (stereo not given in full) | 2.79 |
| COC(=O)C1OC(CO)C(O)C(O)C1O (stereo in doubt; 31) | 3.19 |
| CO[C@@H]1O[C@H](CO)[C@H](O)[C@H](O)[C@H]1O | 3.21 |
| COC(=O)C1OC(CO)C(O)C(O)C1O (stereo in doubt; 33) | 0.92 |
| OCC1OC(CO)C(O)C(O)C1O (stereo in doubt; 9) | 0.41 |
| O=C(Nc1ccccc1)C1OC(CO)C(O)C(O)C1O (stereo not given) | 2.53 |
| NNC(=O)[C@@H]1O[C@H](CO)[C@@H](O)[C@H](O)[C@H]1O (stereo in doubt; 25) | 1.1 |

----------
# system tested: Glycogen phosphorylase, muscle form (Oryctolagus cuniculus) (UniProt P00489)
# Sequence (P00489 whole entry, looked up): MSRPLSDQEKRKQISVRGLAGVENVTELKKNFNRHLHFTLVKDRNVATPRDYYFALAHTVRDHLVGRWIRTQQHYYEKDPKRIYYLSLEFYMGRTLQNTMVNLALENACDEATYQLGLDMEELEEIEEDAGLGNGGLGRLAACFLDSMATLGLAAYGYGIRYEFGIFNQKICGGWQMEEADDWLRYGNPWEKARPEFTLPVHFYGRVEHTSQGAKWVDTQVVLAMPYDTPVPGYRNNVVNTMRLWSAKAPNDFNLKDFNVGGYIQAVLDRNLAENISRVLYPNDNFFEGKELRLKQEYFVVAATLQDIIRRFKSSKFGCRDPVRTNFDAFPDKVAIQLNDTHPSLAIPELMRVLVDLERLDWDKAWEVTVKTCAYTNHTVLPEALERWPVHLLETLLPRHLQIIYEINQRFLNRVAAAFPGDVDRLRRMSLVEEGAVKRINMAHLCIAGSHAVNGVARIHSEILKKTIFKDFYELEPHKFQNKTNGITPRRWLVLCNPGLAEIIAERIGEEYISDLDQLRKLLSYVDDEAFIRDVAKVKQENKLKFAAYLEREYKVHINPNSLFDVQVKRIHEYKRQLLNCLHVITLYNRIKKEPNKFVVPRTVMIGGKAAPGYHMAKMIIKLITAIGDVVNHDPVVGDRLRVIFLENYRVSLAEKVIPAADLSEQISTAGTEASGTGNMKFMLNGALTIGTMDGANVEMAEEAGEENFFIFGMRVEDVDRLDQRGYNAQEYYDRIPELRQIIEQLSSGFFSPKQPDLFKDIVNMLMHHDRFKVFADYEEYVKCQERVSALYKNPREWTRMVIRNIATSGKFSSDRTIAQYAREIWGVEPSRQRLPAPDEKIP
# assay remarks: Tested for inhibition constant against glycogen phosphorylase b
# Design: scale not given here
Collected Exp Inhib Constant values appear next to each entry.
readout name: Exp Inhib Constant

| compound | reported value |
| --- | --- |
| CC1OC(CO)C(O)C(O)C1O (stereo not drawn) | 3.97 |
| OC[C@H]1O[C@@H](Oc2cc3ccccc3[nH]2)[C@H](O)[C@@H](O)[C@@H]1O | 0.96 |
| OCCO[C@@H]1O[C@H](CO)[C@@H](O)[C@H](O)[C@H]1O | 3.23 |
